# target.of.assay: Cathepsin H (Homo sapiens, UniProt P09668)
# Construct: native cathepsin H was isolated from human liver
# Sequence (P09668 116-335 limits assumed, other chains not shown): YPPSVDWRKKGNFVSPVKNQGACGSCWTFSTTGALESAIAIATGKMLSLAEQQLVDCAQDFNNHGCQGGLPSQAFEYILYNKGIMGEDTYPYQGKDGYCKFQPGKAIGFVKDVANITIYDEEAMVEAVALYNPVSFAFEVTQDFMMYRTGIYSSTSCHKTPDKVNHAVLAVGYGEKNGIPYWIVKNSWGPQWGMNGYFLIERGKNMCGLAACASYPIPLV
# experiment: Ki against cathepsin H (Z-R-AMC)
# condition.info: SigmaPlot at 3 different substrate concentrations; pH 6.8
parameter: Ki (µM)

P. Cc1[nH]c2ccccc2c1C(=O)CSc1n[nH]c(N)n1
Q. Nc1nc(SCC(=O)c2ccc3c(c2)OCCO3)n[nH]1
Q) Would you mind telling me which has the lower recorded Ki between P and Q ? // output: label of the selected item
A) Q

----------
# target.of.assay: Cathepsin S (Homo sapiens)
# Sequence (P25774 115-331): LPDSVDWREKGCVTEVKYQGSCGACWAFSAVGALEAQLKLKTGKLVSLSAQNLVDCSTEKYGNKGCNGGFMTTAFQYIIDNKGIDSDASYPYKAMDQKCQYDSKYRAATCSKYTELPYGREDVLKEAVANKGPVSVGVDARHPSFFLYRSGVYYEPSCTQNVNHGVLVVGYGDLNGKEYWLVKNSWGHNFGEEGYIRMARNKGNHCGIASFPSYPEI
parameter: Ki

Q) Field request: Ki | item: Cc1[nH]c2ccccc2c1C(=O)CSc1n[nH]c(N)n1 [Compound 1]
A) > 1000 µM
